- assay-system: GLP-1 Receptor (Homo sapiens, UniProt P43220)
- Sequence (P43220 24-463, species assumed): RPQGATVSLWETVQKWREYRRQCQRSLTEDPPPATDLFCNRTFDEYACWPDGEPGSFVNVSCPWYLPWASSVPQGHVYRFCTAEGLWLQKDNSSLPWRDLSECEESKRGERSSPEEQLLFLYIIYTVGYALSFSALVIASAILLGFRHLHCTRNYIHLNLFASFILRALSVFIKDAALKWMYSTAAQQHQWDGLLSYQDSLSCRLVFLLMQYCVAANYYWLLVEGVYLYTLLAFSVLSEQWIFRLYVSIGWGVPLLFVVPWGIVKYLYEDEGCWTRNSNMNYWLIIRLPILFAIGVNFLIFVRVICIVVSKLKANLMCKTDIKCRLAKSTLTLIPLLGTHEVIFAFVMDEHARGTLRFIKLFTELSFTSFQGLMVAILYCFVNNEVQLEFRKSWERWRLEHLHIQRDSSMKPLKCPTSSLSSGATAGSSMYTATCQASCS
- procedure-summary: GLP-1R agonist cAMP stimulation assay
- cond: HEK293/CRE-Luc cell line stably expressing the GLP-1 Receptor; 30 min incubation; cAMP dynamic 2 Kit (Cisbio)
pEC50: −log10 of the molar value.
measured-quantity: pEC50

Entry C[C@]1(c2ccc(Cl)cc2F)Oc2cccc(C3CCN(Cc4ncc(-c5nnc(C(F)(F)F)[nH]5)cc4N4CCOCC4)CC3)c2O1 , system GLP-1 Receptor (Homo sapiens, UniProt P43220): what pEC50 was measured?
> 9.00

Field: pEC50 (GLP-1 Receptor (Homo sapiens, UniProt P43220)). Entry: C[C@]1(c2ccc(Cl)cc2F)Oc2cccc(C3CCN(Cc4ncc(-c5nnc(C(F)(F)F)[nH]5)cc4C4COC4)CC3)c2O1
< 7.00

Request: pEC50, test system GLP-1 Receptor (Homo sapiens, UniProt P43220), entry C[C@]1(c2ccc(Cl)cc2F)Oc2cccc(C3CCN(Cc4ncc(-c5nnc(C(F)(F)F)[nH]5)cc4N4CCOC4=O)CC3)c2O1
7.00 to 9.00

Lab note: need pEC50 for Cc1cc(-c2noc(-c3cccnc3)n2)cnc1CN1CCC(c2cccc(OCc3ccc(Cl)cc3F)n2)CC1 on GLP-1 Receptor (Homo sapiens, UniProt P43220), anyone have it?
< 7.00

Hi! What's the reported pEC50 for Cc1cc(-c2ccncc2)cnc1CN1CCC(c2cccc3c2OC(C)(c2ccc(Cl)cc2F)O3)CC1 (centres unmarked) on GLP-1 Receptor (Homo sapiens, UniProt P43220)?
< 7.00

Form: Entry = C[C@]1(c2ccc(Cl)cc2F)Oc2cccc(C3CCN(Cc4ncc(-c5nnc(C(F)(F)F)[nH]5)cc4N4CC5CC4CO5)CC3)c2O1 (some centres unmarked) | System = GLP-1 Receptor (Homo sapiens, UniProt P43220) | pEC50 = ____
7.00 to 9.00

* * *

- assay-system: GLP-1 Receptor (Homo sapiens, UniProt P43220)
- procedure-summary: GLP-1R agonist cAMP stimulation assay
- cond: HEK293/CRE-Luc cell line stably expressing the GLP-1 Receptor; 30 min incubation; cAMP dynamic 2 Kit (Cisbio)
pEC50: −log10 of the molar value.
measured-quantity: pEC50

Some compounds with recorded pEC50:
| compound | pEC50 |
| --- | --- |
| Cc1cc(-c2nc(C(=O)O)cs2)cnc1CN1CCC(c2cccc3c2OC(C)(c2ccc(Cl)cc2F)O3)CC1 (stereo not shown) [E-17] | < 7.00 |
| Cc1cc(-c2csc(C(=O)O)n2)cnc1CN1CCC(c2cccc3c2OC(C)(c2ccc(Cl)cc2F)O3)CC1 (stereo not shown) [E-7] | 7.00 to 9.00 |

// below: pEC50 requested for another compound
Which measured pEC50 value corresponds to C[C@]1(c2ccc(Cl)cc2F)Oc2cccc(C3CCN(Cc4ncc(-c5nnc(C(F)(F)F)[nH]5)cc4CS(=O)(=O)C4CC4)CC3)c2O1 [F-16] ?
7.00 to 9.00

* * *

- assay-system: GLP-1 Receptor (Homo sapiens)
- procedure-summary: GLP-1R agonist cAMP stimulation assay
- cond: HEK293/CRE-Luc cell line stably expressing the GLP-1 Receptor; 30 min incubation; cAMP dynamic 2 Kit (Cisbio)
measured-quantity: EC50

Missing value: EC50, GLP-1 Receptor (Homo sapiens), entry N#CC1(Cc2cc(C(=O)NC3(C#N)CC3)cnc2CN2CCC(c3ccc(F)c(OCc4ccc(Cl)cc4F)n3)CC2)CC1 . Fill in?
> 100 nM

Write down the reported EC50 of Cc1cc(-c2cc(C(=O)O)n[nH]2)cnc1CN1CCC(c2cccc3c2OC(C)(c2ccc(Cl)cc2F)O3)CC1 (stereo not shown) , test system: GLP-1 Receptor (Homo sapiens).
1 to 100 nM

# query: EC50 | item C[C@]1(c2ccc(Cl)cc2F)Oc2cccc(C3CCN(Cc4ncc(-c5nnc(C(=O)NC6CC6)[nH]5)cc4CC4(C#N)CC4)CC3)c2O1 | system: GLP-1 Receptor (Homo sapiens)
< 1 nM

I'm curious: which EC50 was measured for C[C@]1(c2ccc(Cl)cc2F)Oc2cccc(C3CCN(Cc4ncc(-c5nnc(C(F)(F)F)[nH]5)cc4N4CCNC(=O)C4)CC3)c2O1 tested on GLP-1 Receptor (Homo sapiens)?
1 to 100 nM

* * *

- assay-system: GLP-1 Receptor (Homo sapiens)
- procedure-summary: GLP-1R agonist cAMP stimulation assay
- cond: HEK293/CRE-Luc cell line stably expressing the GLP-1 Receptor; 30 min incubation; cAMP dynamic 2 Kit (Cisbio)
Recorded EC50 by entry

The examples below pair each entry with its known result.
| molecule | EC50 |
| --- | --- |
| COCCc1cc(-c2nnc(C(=O)OC)[nH]2)cnc1CN1CCC(c2cccc3c2O[C@@](C)(c2ccc(Cl)cc2F)O3)CC1 | 0.001 to 0.1 µM |
| CC1(c2ccc(Cl)cc2F)Oc2cccc(C3CCN(Cc4ncc(-c5nnn[nH]5)cc4C4CC4)CC3)c2O1 (stereo not shown) | 0.001 to 0.1 µM |
| Cc1cc(-c2nnc(-c3cccnc3)[nH]2)cnc1CN1CCC(c2cccc3c2O[C@@](C)(c2ccc(Cl)cc2F)O3)CC1 | 0.001 to 0.1 µM |
| N#CC1(Cc2cc(-c3nc(C(F)(F)F)n[nH]3)cnc2CN2CCC(c3ccc4cnn(Cc5ccc(Cl)cc5F)c4n3)CC2)CC1 | < 0.001 µM |
| CNC(=O)c1cnc(CN2CCC(c3cccc4c3O[C@@](C)(c3ccc(Cl)cc3F)O4)CC2)c(CC2(C#N)CC2)c1 | 0.001 to 0.1 µM |

For the molecule shown here, COCCNC(=O)c1nnc(-c2cnc(CN3CCC(c4cccc5c4O[C@@](C)(c4ccc(Cl)cc4F)O5)CC3)c(CC3(C#N)CC3)c2)[nH]1 , give the reported EC50.
< 0.001 µM

Quick one: EC50 of CC1(C#N)CN(c2cc(-c3nnc(C(F)(F)F)[nH]3)cnc2CN2CCC(c3cccc4c3O[C@@](C)(c3ccc(Cl)cc3F)O4)CC2)C1 ?
0.001 to 0.1 µM

Please report the recorded EC50 for CC1(c2ccc(C(=O)O)cc2F)Oc2cccc(C3CCN(Cc4ncc(-c5nnc(C(F)(F)F)[nH]5)cc4CC4(C#N)CC4)CC3)c2O1 (stereo not shown) .
0.001 to 0.1 µM

Any idea what EC50 was measured for COCCNC(=O)c1cnc(CN2CCC(c3cccc4c3O[C@@](C)(c3ccc(Cl)cc3F)O4)CC2)c(CC2(C#N)CC2)c1 ?
0.001 to 0.1 µM

Which EC50 is reported for this molecule? C[C@]1(c2ccc(Cl)cn2)Oc2cccc(C3CCN(Cc4ncc(C(=O)NC5(C#N)CC5)cc4CC4(C#N)CC4)CC3)c2O1
> 0.1 µM

GET /values?readout=EC50&item= C[C@]1(c2ccc(Cl)cc2F)Oc2cccc(C3CCN(Cc4ncc(-c5nnc(C(F)(F)F)[nH]5)cc4N4CCC(O)C4)CC3)c2O1 (stereo partly shown)
0.001 to 0.1 µM

# input molecule: COCCc1cc(-c2nnc(C(=O)O)[nH]2)cnc1CN1CCC(c2cccc3c2O[C@@](C)(c2ccc(Cl)cc2F)O3)CC1 ; wanted: its EC50
> 0.1 µM

* * *

- assay-system: GLP-1 Receptor (Homo sapiens, UniProt P43220)
- procedure-summary: GLP-1R agonist cAMP stimulation assay
- cond: HEK293/CRE-Luc cell line stably expressing the GLP-1 Receptor; 30 min incubation; cAMP dynamic 2 Kit (Cisbio)
pEC50: −log10 of the molar value.
measured-quantity: pEC50

Sample records with pEC50:
| compound | data-value |
| --- | --- |
| C[C@]1(c2ccc(Cl)cc2F)Oc2cccc(C3CCN(Cc4nnc(-c5nnc(C(F)(F)F)[nH]5)cc4N4CCOC5(CC5)C4)CC3)c2O1 | 7.00 to 9.00 |
| Cc1cc(-c2nnc(C3CCCOC3)[nH]2)cnc1CN1CCC(c2cccc3c2O[C@@](C)(c2ccc(Cl)cc2F)O3)CC1 (some centres unmarked) | < 7.00 |
| CC1COCCN1c1cc(-c2nnc(C(F)(F)F)[nH]2)nnc1CN1CCC(c2cccc3c2O[C@@](C)(c2ccc(Cl)cc2F)O3)CC1 (some centres unmarked) | 7.00 to 9.00 |

Entry C[C@]1(c2ccc(Cl)cc2F)Oc2cccc(C3CCN(Cc4ncc(-c5nnc(C(F)(F)F)[nH]5)cc4C4CCOCC4)CC3)c2O1 : reported pEC50 = ?
7.00 to 9.00

For the compound CNC(=O)c1nnc(-c2cnc(CN3CCC(c4cccc5c4O[C@@](C)(c4ccc(Cl)cc4F)O5)CC3)c(CC3(C#N)CC3)c2)[nH]1 , what pEC50 is on record?
> 9.00

Need pEC50, item C[C@]1(c2ccc(Cl)cc2F)Oc2cccc(C3CCC(Cc4ncc(-c5nnc(C(N)=O)[nH]5)cc4CC4(C#N)CC4)CC3)c2O1 (some centres unmarked)
> 9.00

For the compound C[C@]1(c2ccc(Cl)cc2F)Oc2cccc(C3CCN(Cc4ncc(-c5nnc(C(F)(F)F)[nH]5)cc4C4CCCOC4)CC3)c2O1 (some centres unmarked) , what pEC50 is on record?
7.00 to 9.00

Query (compound): C[C@]1(c2ccc(Cl)cc2F)Oc2cccc(C3CCN(Cc4ncc(-c5nnc(C(F)(F)F)[nH]5)cc4NC4CCCC4)CC3)c2O1 ; field requested: pEC50
7.00 to 9.00
